Overview of reported pIC50 across a group of molecules:
Biological target: SCD5 (Homo sapiens, UniProt Q86SK9)
Construct: host or cells: S. cerevisiae ole1Δ strain (W303 pdr1Δ pdr3Δ background), plasmid pRS316 with TDH3 promoter and CYC1 terminator
Sequence (Q86SK9 1-330): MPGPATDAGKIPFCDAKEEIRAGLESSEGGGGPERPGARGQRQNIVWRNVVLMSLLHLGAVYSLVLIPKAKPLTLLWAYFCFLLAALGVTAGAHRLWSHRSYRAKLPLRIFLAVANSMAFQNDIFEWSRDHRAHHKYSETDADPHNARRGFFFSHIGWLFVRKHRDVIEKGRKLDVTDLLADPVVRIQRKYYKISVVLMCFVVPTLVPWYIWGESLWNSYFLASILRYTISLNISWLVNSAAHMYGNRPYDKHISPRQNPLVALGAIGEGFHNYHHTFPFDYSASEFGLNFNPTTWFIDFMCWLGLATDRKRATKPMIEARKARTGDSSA
Experiment: Growth inhibition of humanized yeast strain expressing SCD5 as sole desaturase
Assay type: cell-based
Details: humanized yeast strain, 40 h
pIC50: −log10 of the molar value.
Property: pIC50

>>> df
                                     smiles                  experimental_system  property  result
0  CC(C)(C)OC(=O)N1CCC(c2noc(-c3ccc(N4CCOCC4)cc3)n2)CC1  SCD5 (Homo sapiens, UniProt Q86SK9)     pIC50  < 4.35
1  CC(C)(C)OC(=O)N1C[C@@H]2[C@H](C1)[C@H]2C(=O)NCc1ccncc1  SCD5 (Homo sapiens, UniProt Q86SK9)     pIC50  < 4.35
2  CO[C@H]1C[C@H](n2ncc3ccc(-c4noc(C5CCN(C(=O)OC(C)(C)C)CC5)n4)cc32)C1  SCD5 (Homo sapiens, UniProt Q86SK9)     pIC50  < 5.40
